assay: High temperature test (stability study); assay type: physicochemical; conditions: High temperature, 60° C., 5 days
assayEndpoint: Appearance

COC(=O)C1=C(CN2CCOC[C@H]2C(=O)O)N=C(c2nccs2)N[C@H]1c1ccc(F)cc1Cl.O=C(O)C(O)C(O)C(=O)O : yellow
Br.COC(=O)C1=C(CN2CCOC[C@H]2C(=O)O)N=C(c2nccs2)N[C@H]1c1ccc(F)cc1Cl : yellow
COC(=O)C1=C(CN2CCOC[C@H]2C(=O)O)N=C(c2nccs2)N[C@H]1c1ccc(F)cc1Cl.Cl : yellow

----------
Provide the reported Total impurity (%) of each item.
test: High humidity test (stability study); format: physicochemical; details: 25° C., 5 days
Express the result in % but write the number alone.

Field Total impurity (%) (entry `COC(=O)C1=C(CN2CCOC[C@H]2C(=O)O)N=C(c2nccs2)N[C@H]1c1ccc(F)cc1Cl.O=C(O)C(O)C(O)C(=O)O` ) reads 0.16

// Total impurity (%) value for `COC(=O)C1=C(CN2CCOC[C@H]2C(=O)O)N=C(c2nccs2)N[C@H]1c1ccc(F)cc1Cl.Cl` : 0.35

Note to self: Total impurity (%) recorded for `Br.COC(=O)C1=C(CN2CCOC[C@H]2C(=O)O)N=C(c2nccs2)N[C@H]1c1ccc(F)cc1Cl` was 0.32

The reported Total impurity (%) of the molecule `COC(=O)C1=C(CN2CCOC[C@H]2C(=O)O)NC(c2nccs2)=N[C@H]1c1ccc(F)cc1Cl` was 2.49
